Every entry's value here was drawn from paper PMC9482650.

- assay_target: T1, TX1BP3, O14907
- T1 sequence (O14907 10-122, limits assumed, looked up): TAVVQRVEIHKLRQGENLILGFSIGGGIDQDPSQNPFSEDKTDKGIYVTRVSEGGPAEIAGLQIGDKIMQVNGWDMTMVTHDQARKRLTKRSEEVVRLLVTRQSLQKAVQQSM
- procedure_details: holdup assay
- Design: key: below the threshold = too weak to quantify, mostly under pKd 3.1 to 4
- study_conditions: plain residues with an end cap or a label only (N-terminal biotin on a linker: ado-ado)
observation_type: pKd

- binder: "TSQESEDTYL [TBC1D10A, Q9BXI6]"
  result: "below the threshold"
- binder: "PAPSSGKDYV [CLDN1, O95832]"
  result: "below the threshold"
- binder: "QMNQTLPVQV [EPHB3, P54753]"
  result: "below the threshold"
- binder: "EALLQMESVA [CAVIN3, Q969G5]"
  result: "below the threshold"
- binder: "TACCHSETVV [TGFA, P01135]"
  result: 3.82
- binder: "DDPSTAETVL [ABCA7, Q8IZY2]"
  result: "below the threshold"
- binder: "PLSPEQPTKL [TRIM50, Q86XT4]"
  result: "below the threshold"
- binder: "DTTVPESEDL [MYOZ2, Q9NPC6]"
  result: "below the threshold"
- binder: "LKVPPEERLI [CRB2, Q5IJ48]"
  result: "below the threshold"
- binder: "TKGPRGPTRV [SAPCD1, Q5SSQ6]"
  result: "below the threshold"

Please report pKd for every entry that follows.
1. EVNETDDTKM [KCNJ1, P48048]
2. RKPKPSSSCC [RAB9A, P51151]
3. PKRSFIESNV [TANC1, Q9C0D5]
4. ETQVTAETVI [TMEM225B, P0DP42]
5. IKAIVDLTGL [TRAF2, Q12933]

(A)
4.15
3.89
5.72
below the threshold
below the threshold

(Q) Any idea what pKd was measured for QSARLWETSI [ADAM22, Q9P0K1] ?
(A) 4.8
